- Test system: E2F
- experiment.notes: siRNA transfection array, E2F EGFP reporter, HepG2 cells
- Format: cell-based, human
- assay.setup: E2F reporter, 48 h culture
property: Relative intensity ratio of EGFP fluorescence against Scramble II Duplex, E2F (%)
Express the result in % but write the number alone.

**Query** I am curious: what Relative intensity ratio of EGFP fluorescence against Scramble II Duplex, E2F value has been reported for SRF siRNA: siRNA SEQ ID NO: 70 (Dharmacon), targets human serum response factor J03161 (CAGCACCUAGCACCUCUAC; chemistry not given here) ?
**Result** 127.7

**Query** I am curious: what Relative intensity ratio of EGFP fluorescence against Scramble II Duplex, E2F value has been reported for RARA siRNA: siRNA SEQ ID NO: 65 (Dharmacon), targets human retinoic acid receptor alpha NM_000964 (GUACUGCCGACUGCAGAAG; chemistry not given here) ?
**Result** 194.0

**Query** I am curious: what Relative intensity ratio of EGFP fluorescence against Scramble II Duplex, E2F value has been reported for CREB siRNA: siRNA SEQ ID NO: 55 (Dharmacon), targets human CREB M27691 (CAGGAGUCAGUGGAUAGUG; chemistry not given here) ?
**Result** 163.4

**Query** I am curious: what Relative intensity ratio of EGFP fluorescence against Scramble II Duplex, E2F value has been reported for Scramble: Non-targeting scramble II Duplex (Dharmacon), SEQ ID NO: 77, negative control (AGUUCCAAUAGAACCAGUC; chemistry not given here) [reference compound] ?
**Result** 100.0

**Query** I am curious: what Relative intensity ratio of EGFP fluorescence against Scramble II Duplex, E2F value has been reported for STAT3 siRNA: siRNA SEQ ID NO: 74 (Dharmacon), targets human DNA-binding protein APRF L29277 (GAAACUGGAGGAGUUGCAC; chemistry not given here) ?
**Result** 132.0

**Query** I am curious: what Relative intensity ratio of EGFP fluorescence against Scramble II Duplex, E2F value has been reported for STAT1b siRNA: siRNA SEQ ID NO: 72 (Dharmacon), targets human transcription factor ISGF-3 M97936 (GGAAGACCCAAUCCAGAUG; chemistry not given here) ?
**Result** 166.6
